# ASSAY_INFO: Pharmacokinetic study (PK), i.v., CD-1 mice
# Assay type: in vivo
# RECORDED_CONDITIONS: male, CD-1, in vivo, iv; mouse, i.v. 1 mg/kg, 3 h; read-out: Calc. Conc. (plasma)
# Description: For the compounds of Ex. 1, Ex. 2, Ex. 3, Ex. 4, Ex. 5 and Ex. 6 pharmacokinetic studies after intravenous (i.v.) administration were performed. 30 grams (±20%) male CD-1 mice obtained from Charles River Laboratories Deutschland GmbH were used. […] PK parameters were calculated by WinNonLin™ software version 5.3 (Pharsight-A Certara™ Company, Mountain View, Calif. 94041 USA) using a one-compartmental model analysis. […]
Bridge positions count the residues as written; N and C are the ends. Square brackets hold non-standard residues; d marks the D form. Peptide text beside a SMILES is read from it. Lys(iPr) = CC(C)NCCCC[C@H](N)C(=O)O; Dab = NCC[C@H](N)C(=O)O
READOUT_KIND: level at 3 h

[
  {
    "MOLECULE": "CC(C)NCCCC[C@@H]1NC(=O)[C@H](CCC(N)=O)NC(=O)[C@H](Cc2ccc(O)cc2)NC(=O)[C@@H]2CSSC[C@H](NC(=O)[C@H](C)NC(=O)[C@H](Cc3c[nH]cn3)NC(=O)[C@H](Cc3ccc(O)cc3)NC(=O)[C@@H]3CCCN3C(=O)[C@H]3CCCN3C1=O)C(=O)N[C@@H](CO)C(=O)N[C@@H](C)C(=O)N[C@H](Cc1ccc(O)cc1)C(=O)N[C@@H](CCN)C(=O)N[C@@H](CCCNC(=N)N)C(=O)N[C@@H](Cc1ccc(O)cc1)C(=O)N2 [Ex. 3] (cyclo(YHACSA[dY][Dab]RYCYQ[Lys(iPr)][dP]P); disulfide 4-11)",
    "READOUT_KIND": "level at 3 h",
    "READOUT_VALUE": "0.026 µg/mL"
  }
]

====

# ASSAY_INFO: Pharmacokinetic study (PK), i.v., CD-1 mice
# Assay type: in vivo
# RECORDED_CONDITIONS: male, CD-1, in vivo, iv; mouse, i.v. 1 mg/kg, one-compartmental model
Bridge positions count the residues as written; N and C are the ends. Square brackets hold non-standard residues; d marks the D form. Peptide text beside a SMILES is read from it. Lys(iPr) = CC(C)NCCCC[C@H](N)C(=O)O; Dab = NCC[C@H](N)C(=O)O

[
  {
    "MOLECULE": "CC(C)NCCCC[C@@H]1NC(=O)[C@H](CCC(N)=O)NC(=O)[C@H](Cc2ccc(O)cc2)NC(=O)[C@@H]2CSSC[C@H](NC(=O)[C@H](C)NC(=O)[C@H](Cc3c[nH]cn3)NC(=O)[C@H](Cc3ccc(O)cc3)NC(=O)[C@@H]3CCCN3C(=O)[C@H]3CCCN3C1=O)C(=O)N[C@@H](CO)C(=O)N[C@@H](C)C(=O)N[C@H](Cc1ccc(O)cc1)C(=O)N[C@@H](CCN)C(=O)N[C@@H](CCCNC(=N)N)C(=O)N[C@@H](Cc1ccc(O)cc1)C(=O)N2 [Ex. 3] (cyclo(YHACSA[dY][Dab]RYCYQ[Lys(iPr)][dP]P); disulfide 4-11)",
    "clearance / mL/min/kg": 18.6
  }
]

Origin of the recorded values: patent US9556231B2
